biological target: PDE10A1 (Homo sapiens, UniProt Q9Y233); assay: Selective inhibitory activity assay, PDE10A1; format: biochemical; conditions: 10 μM; read-out: Inhibition rate (%) of PDE10A1
Sequence (Q9Y233 1-779 isoform Q9Y233-1, species assumed): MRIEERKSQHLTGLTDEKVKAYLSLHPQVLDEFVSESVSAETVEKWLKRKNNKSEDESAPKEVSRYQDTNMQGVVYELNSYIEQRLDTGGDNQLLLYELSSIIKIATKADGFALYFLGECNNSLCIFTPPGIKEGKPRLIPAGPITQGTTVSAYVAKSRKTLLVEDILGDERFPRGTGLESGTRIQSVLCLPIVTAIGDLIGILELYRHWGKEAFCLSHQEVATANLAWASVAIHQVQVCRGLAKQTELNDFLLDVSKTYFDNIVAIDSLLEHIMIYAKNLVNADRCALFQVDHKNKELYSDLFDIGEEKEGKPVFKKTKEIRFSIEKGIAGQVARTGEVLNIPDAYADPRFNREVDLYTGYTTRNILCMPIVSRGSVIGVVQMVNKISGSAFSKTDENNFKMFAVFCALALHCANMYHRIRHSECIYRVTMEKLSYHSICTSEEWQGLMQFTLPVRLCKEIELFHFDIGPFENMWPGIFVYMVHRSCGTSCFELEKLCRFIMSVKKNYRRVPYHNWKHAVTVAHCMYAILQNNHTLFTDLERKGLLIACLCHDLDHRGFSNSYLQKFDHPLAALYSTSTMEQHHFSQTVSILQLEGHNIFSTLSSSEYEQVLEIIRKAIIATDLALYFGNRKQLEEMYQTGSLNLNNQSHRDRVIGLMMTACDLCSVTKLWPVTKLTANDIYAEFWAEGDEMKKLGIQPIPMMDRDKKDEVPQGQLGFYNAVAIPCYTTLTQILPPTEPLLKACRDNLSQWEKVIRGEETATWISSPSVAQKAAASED
Reported inhibition at 10 µM values for the following compounds.
Dear colleague, please return just the value in %, with no unit written.

These solved cases illustrate the format of a correct answer.
- Compound: "CCCC#Cc1ccc(NC(C)=O)c2c1C(=O)N([C@H](CS(C)(=O)=O)c1ccc(OC)c(OCC)c1)C2=O"
  inhibition at 10 µM (%): 1.3
- Compound: "CCOc1cc([C@@H](CS(C)(=O)=O)N2C(=O)c3cccc(NC(C)=O)c3C2=O)ccc1OC [Example 0, Apremilast, reference compound]"
  inhibition at 10 µM (%): -2.75
- Compound: "CCCCCc1ccc(NC(=O)CF)c2c1C(=O)N([C@H](CS(C)(=O)=O)c1ccc(OC)c(OCC)c1)C2=O"
  inhibition at 10 µM (%): 0.04
- Compound: "CCCCc1ccc(NC(=O)CCCCl)c2c1C(=O)N([C@H](CS(C)(=O)=O)c1ccc(OC)c(OCC)c1)C2=O"
  inhibition at 10 µM (%): 1.01
- Compound: "CCCCCc1ccc(NC(=O)CCl)c2c1C(=O)N([C@H](CS(C)(=O)=O)c1ccc(OC)c(OCC)c1)C2=O"
  inhibition at 10 µM (%): 11.1

get_value(item= CCCCCc1ccc(NC(C)=O)c2c1C(=O)N([C@H](CS(C)(=O)=O)c1ccc(OC)c(OCC)c1)C2=O , readout=inhibition at 10 µM) returns 10.1

inhibition at 10 µM in this record for CCCCCc1ccc(NC(=O)CCCCl)c2c1C(=O)N([C@H](CS(C)(=O)=O)c1ccc(OC)c(OCC)c1)C2=O : 5.46

====

Biological target: PDE10A1 (Homo sapiens, UniProt Q9Y233)
Test: Selective inhibitory activity assay, PDE10A1
Type: biochemical
Conditions: 1 μM; read-out: Inhibition rate (%) of PDE10A1
Experimental: 7. Selective inhibitory activity assay for PDE1, 2, 3, 5, 7, 10 and 11 enzymes The selective specificity of compounds for PDE4 was assessed by assaying single concentrations of the compounds. For example, PDE1a enzyme, PDElc enzyme, PDE2a enzyme, PDE3a enzyme, PDE3b enzyme, PDE5a1 enzyme, PDE7a enzyme, PDE7b enzyme, PDE10a1 enzyme and PDE11a4 enzyme were tested. […]
Label true when inhibition at 1 µM >= 6%; otherwise false.

Known results for molecules:
- Molecule: "CCCC#Cc1ccc(NC(C)=O)c2c1C(=O)N([C@H](CS(C)(=O)=O)c1ccc(OC)c(OCC)c1)C2=O [Example 7]"
  System Under Test: "PDE10A1 (Homo sapiens, UniProt Q9Y233)"
  Discrete Label: "false"
- Molecule: "CCCCc1ccc(NC(=O)CCCCl)c2c1C(=O)N([C@H](CS(C)(=O)=O)c1ccc(OC)c(OCC)c1)C2=O [Example 27]"
  System Under Test: "PDE10A1 (Homo sapiens, UniProt Q9Y233)"
  Discrete Label: "true"
- Molecule: "CCOc1cc([C@@H](CS(C)(=O)=O)N2C(=O)c3cccc(NC(C)=O)c3C2=O)ccc1OC [Example 0, Apremilast, reference compound]"
  System Under Test: "PDE10A1 (Homo sapiens, UniProt Q9Y233)"
  Discrete Label: "false"
- Molecule: "CCCCCc1ccc(NC(=O)CCl)c2c1C(=O)N([C@H](CS(C)(=O)=O)c1ccc(OC)c(OCC)c1)C2=O [Example 25]"
  System Under Test: "PDE10A1 (Homo sapiens, UniProt Q9Y233)"
  Discrete Label: "false"
- Molecule: "CCCCCc1ccc(NC(=O)CF)c2c1C(=O)N([C@H](CS(C)(=O)=O)c1ccc(OC)c(OCC)c1)C2=O [Example 28]"
  System Under Test: "PDE10A1 (Homo sapiens, UniProt Q9Y233)"
  Discrete Label: "true"

API: above_or_equal(metric=inhibition at 1 µM, cutoff=6%) for item C=CC(=O)Nc1ccc(CCCCC)c2c1C(=O)N([C@H](CS(C)(=O)=O)c1ccc(OC)c(OCC)c1)C2=O [Example 29]
false

Reference for the values: patent US20240254082A1
